Sourced from PubChem BioAssay (NCI)

Please respond with reported TGI for every item in the list.
Tested on: DMS 273 small cell lung
assay-method-text: NCI tumour cell line growth inhibition, 48 h

Solved cases below.
molecule | TGI
CNC(=O)N(C)N=NCCCl | > 100 µM
COc1ccc(C2COc3cc(OC(C)=O)c(OC(C)=O)cc3C2)cc1 (stereo not drawn) | 52.7 µM
N#Cc1nc(Nc2cccc3ccccc23)sc1N | > 100 µM
CCN(CC)CC1CCCCCCCCCCC1=O (stereo not drawn) | > 100 µM
COc1cccc(/C=C/c2cc(OC)c(OC)c(OC)c2)c1 | > 100 µM
[N-]=[N+]=NC12CC3C4CC5CC3C(C1)C(C5)C4C2 | > 100 µM
O=[N+]([O-])c1ccc(C2=Nn3cnnc3SC2)o1 | 36.3 µM
COC1(OC)CC2C(=O)N(Cc3ccccc3)C1C(S(=O)(=O)c1ccccc1)C2S(=O)(=O)c1ccccc1 (stereo not drawn) | 27.7 µM
S=C(Nc1ccccc1)N(/N=C/C=C/c1ccccc1)c1nnc(-c2ccccc2)c(-c2ccccc2)n1 | > 100 µM
Cc1ccc(Cc2c(=O)[nH]nc3ccccc23)cc1 | > 100 µM

Please give TGI, item by item, for the list that follows.
1. COc1cc([C@H]2Oc3cc(O)c4c(=O)cc(-c5ccccc5)oc4c3O[C@@H]2CO)ccc1O
2. COc1cc2cc3c4c(cc(OC)c(OC)c4c2cc1OC)CCN3C(=O)OCCN1CCNCC1
3. CC(CCC=O)CCOCc1ccccc1 (stereo not drawn)

*A*
> 100 µM
26.5 µM
> 100 µM

###

Please provide measured TGI for the entries that follow.
System: MOLT-4 leukemia
assay-method-text: NCI tumour cell line growth inhibition, 48 h

molecule | target-system | property-measured | data-value
CCCC(=O)n1[nH]c(=O)n(-c2ccc(Cl)cc2)c1=O | MOLT-4 leukemia | TGI | > 100 µM
O=C(O)c1ccc(Nc2c3ccccc3nc3ccccc23)cc1 | MOLT-4 leukemia | TGI | > 83.9 µM
CCCCCCNC(=O)c1cc(NCc2cc(O)ccc2O)ccc1O | MOLT-4 leukemia | TGI | 13.4 µM

List TGI for every entry below, keeping the order given.
1. CC(O)CCC(=O)c1ccoc1 (configuration not stated)
2. C/C(=N\NC(=S)N1CCCCC1)c1nc2ncccc2[nH]1
3. CC1(c2cccs2)CC(c2cccs2)=C(C#N)C(=C(C#N)C#N)N1 (configuration not stated)
4. CCCCC1=NNC(=O)C1

*A*
["> 9430 µM", "19.9 µM", "> 100 µM", "> 100 µM"]

###

Tested on: HOP-62 NSCLC
assay-method-text: NCI tumour cell line growth inhibition, 48 h; in the data active = GI50 below about 0.43 µM; inactive = the rest
Could you please pick one outcome from this set? 1 (active), -1 (inactive)

For orientation, consider the following solved cases.
compound | target-system | label-value
Clc1nc2ccccc2nc1CI | HOP-62 NSCLC | -1
CC(C)=CC/C=C(/C)[C@H]1CC[C@]2(C)[C@@H]1CC[C@@H]1[C@@]3(C)CCCNC(C)(C)[C@@H]3CC[C@]12C | HOP-62 NSCLC | -1
CCCCCCCCCCCCOC1C(C(COC2OC(C3COC(C)(C)O3)C3OC(C)(C)OC23)NC(=O)Nc2ccc(C(=O)O)cc2)OC2OC(C)(C)OC21 (stereo not given) | HOP-62 NSCLC | -1
C=CCCCCC/C=C\[C@H](O)C#CC#C/C=C/CO | HOP-62 NSCLC | -1

Pending compound:
*Q* Could you check what this test reported for CCN(CC)c1ccc2c(c1)OC(N)=C(C#N)C2c1cc(OC)c2c(c1)OCO2 (stereo not given) ?
*A* 1
